Cited source for all entries: PubChem BioAssay (Tox21)

Assay: qHTS RealTime-Glo MT Cell Viability Assay in HepG2 cells - 16 hour (AID 1224885); also: nearly all actives have a fitted effect of over 50% in size; also: potency is read from the fitted curve at half-maximal effect
Conditions: RealTime-Glo luminescence; series mostly up to 76.8 µM
Records with an inconclusive call do not appear. The source made the active and inactive calls. Calls follow the shape of the dose curve; as a rule, active = well fitted cell-killing curve with a large enough effect in the repeat runs; inconclusive = weak or mixed curves; inactive = flat fitted curve, though single readings scatter.
Measured parameter: Potency

Examples from the recorded data:
Molecule smiles: CN(C)c1ccc(SC#N)cc1
Potency: inactive
//
Molecule smiles: CCOC(=O)/C=C(C)/C=C/C=C(C)/C=C/c1c(C)cc(OC)c(C)c1C
Potency: inactive
//
Molecule smiles: OC1(c2ccc(Cl)c(C(F)(F)F)c2)CCN(CCCC(c2ccc(F)cc2)c2ccc(F)cc2)CC1
Potency: 10.7 µM (active)
//
Molecule smiles: O=C(NO)C1(NS(=O)(=O)c2ccc(Oc3ccc(F)cc3)cc2)CCOCC1
Potency: inactive

Continue with the next compound.
Kindly note the recorded Potency for CC(C)(C)NC(=O)[C@@H]1C[C@@H]2CCCC[C@@H]2CN1C[C@@H](O)[C@H](Cc1ccccc1)NC(=O)[C@H](CC(N)=O)NC(=O)c1ccc2ccccc2n1 , which is 55.7 µM (active)

* * *

Assay: A CellTox Green Cytotoxicity Assay to monitor cytotoxicity in HepG2 cells - 24 hour (AID 1224878); also: nearly all actives have a fitted effect of over 45% in size
Conditions: CellTox Green fluorescence; series mostly up to 76.8 µM
Inconclusive results are not listed. Active and inactive are the calls of the source. The call rests on the fitted dose curve; in most records, active means well fitted activation curve with a large enough effect in the repeat runs; inconclusive means weak or mixed curves; inactive means flat fitted curve, though single readings scatter.
A correct response names exactly one class from active, inactive

Compound: COc1cccc2c1C(=O)c1c(O)c3c(c(O)c1C2=O)C[C@@](O)(C(=O)CO)C[C@@H]3O[C@H]1C[C@H](N)[C@H](O[C@@H]2CCCCO2)[C@H](C)O1
Class name: active

# next compound below
[Q] Which result was noted for this compound in the test: CCc1cc(SCc2sc(-c3ccc(C(F)(F)F)cc3)nc2CN2CCN(c3ccc(OC)cc3)CC2)ccc1OCC(=O)O
[A] inactive

* * *

Molecular target: Luciferin 4-monooxygenase (Photinus pyralis) (UniProt P08659)
Sequence (P08659 whole entry, looked up): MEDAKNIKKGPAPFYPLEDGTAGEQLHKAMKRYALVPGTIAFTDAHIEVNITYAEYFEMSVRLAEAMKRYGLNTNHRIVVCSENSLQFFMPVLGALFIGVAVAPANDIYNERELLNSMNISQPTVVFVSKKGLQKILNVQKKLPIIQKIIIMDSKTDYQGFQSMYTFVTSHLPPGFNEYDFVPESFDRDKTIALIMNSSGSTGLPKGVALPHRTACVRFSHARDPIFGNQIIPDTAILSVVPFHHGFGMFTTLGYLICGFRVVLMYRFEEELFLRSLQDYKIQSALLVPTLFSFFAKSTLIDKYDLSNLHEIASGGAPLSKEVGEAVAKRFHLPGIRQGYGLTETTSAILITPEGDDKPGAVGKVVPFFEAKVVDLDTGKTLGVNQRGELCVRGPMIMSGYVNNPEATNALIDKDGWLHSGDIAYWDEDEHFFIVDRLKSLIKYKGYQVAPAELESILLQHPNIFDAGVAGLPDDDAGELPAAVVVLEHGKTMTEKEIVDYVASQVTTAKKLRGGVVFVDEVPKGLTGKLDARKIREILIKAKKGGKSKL
Test: qHTS assay to identify small molecule inhibitors of firefly luciferase (AID 1224835); also: nearly all actives have a fitted effect of over 25% in size
Settings: purified P. pyralis luciferase, luminescence inhibition; series mostly up to 115 µM
Inconclusive results are not listed. The source made the active and inactive calls. Calls come from the whole dose curve; as a rule, active = well fitted inhibition curve with a large enough effect in the repeat runs; inconclusive = weak or mixed curves; inactive = flat fitted curve, though single readings scatter.
The categories you may choose from are 1 (yes) = active, 0 (no) = inactive

Molecule: CCCCCCCCS(=O)C(C)Cc1ccc2c(c1)OCO2 (stereo unspecified)
Class name: 0 (no)

[Q] Per the assay record, what outcome was assigned to CC(C)OC(=O)c1cc2c(OCC(O)CNC(C)(C)C)cccc2[nH]1 (stereo unspecified) ?
[A] 0 (no)

[Q] Dear colleague, could you share the recorded outcome for CCCCCCCCCOC(=O)c1ccc(O)cc1 when you have a moment?
[A] 1 (yes)

[Q] // outcome(item) with item = Cc1onc(-c2ccccc2Cl)c1C(=O)N[C@@H]1C(=O)N2[C@@H]1SC(C)(C)[C@@H]2C(=O)O
[A] 0 (no)

[Q] Called result for Oc1cc2ccccc2c2ccccc12
[A] 1 (yes)

[Q] Tell me the recorded outcome of this test for O=Cc1cc(O)ccc1Br .
[A] 1 (yes)

* * *

Test: qHTS assay to identify small molecule agonists of the RXR signaling pathway - cell viability counter screen (AID 1159529); also: nearly all actives have a fitted effect of over 50% in size
Details: RXR-alpha-bla HEK293T viability, CellTiter-Glo, 16 h; series mostly up to 76.8 µM
Results filed as inconclusive are left out. Calls of active or inactive are those of the source. Calls come from the whole dose curve; as a rule, active = well fitted cell-killing curve with a large enough effect in the repeat runs; inconclusive = weak or mixed curves, or effect the other way; inactive = no such curve, though single readings can be large or run the other way.
Return exactly one item of T = active, F = inactive

Compound: Cc1[nH]cnc1C[C@H]1CCc2c(C)c3ccccc3n2C1=O
Class name: T
--
Compound: CCc1cc(SCc2sc(-c3ccc(C(F)(F)F)cc3)nc2CN2CCN(c3ccc(OC)cc3)CC2)ccc1OCC(=O)O
Class name: T
--
Compound: CC(C)(C)C(=O)OCOC(=O)[C@@H]1N2C(=O)[C@@H](NC(=O)[C@H](N)c3ccccc3)[C@H]2SC1(C)C
Class name: F
--
Compound: CCCCCCCC(=O)[O-].CCCCCCCC(=O)[O-].[Zn+2]
Class name: F

Lab note: next compound to report on.
[Q] Query: recorded result category for NNc1nc(-c2ccc([N+](=O)[O-])cc2)cs1 in this test
[A] F
